System: MDA-MB-468 breast
Assay: NCI tumour cell line growth inhibition, 48 h; in the data active means GI50 below about 0.43 µM; inactive means the rest
Your answer must be one of the following: active, inactive

stdin: Recorded test call requested for O=C1OC(c2ccccc2)(c2cc(Br)c(O)c(Br)c2)c2ccccc21 (stereo not drawn)
stdout: inactive

stdin: How about COc1cc(-c2nn(-c3cccc(NC(=O)c4ccc(N5CCOCC5)c(C(F)(F)F)c4)c3)cc2-c2ccncc2)ccc1Cl ?
stdout: active

stdin: Another: O=C(NO)c1ccc(Cn2c(=O)n(-c3ccccc3F)c(=O)c3ccccc32)cc1
stdout: inactive

====

System: MDA-MB-468 breast
Test: NCI tumour cell line growth inhibition, 48 h
Assign GI50 to each entry below.

stdin: Could you tell me which GI50 is on file for O=S(=O)(Nc1cc(Cl)ccc1Cl)c1ccc(-c2cnc(C3CC3)o2)cc1 ?
stdout: 821 nM

stdin: Check C/C(=C(\c1ccc(OCCN2CCCCCC2)cc1)c1ccc(OC(=O)Cc2ccccc2)cc1)c1ccc(Cl)cc1 too.
stdout: 1990 nM

stdin: Also CCc1ccc2c(c1)N(CCO)C1=C(C(=O)OC1)C2c1cccc(Cl)c1 (centres undefined) , if possible.
stdout: 239 nM

stdin: Same thing, different compound: C[C@H]1[C@H]2[C@H]3CC[C@@H]4[C@@]5(C)C/C(=C/c6cccnc6)C(=O)C(C)(C)[C@@H]5CC[C@@]4(C)[C@]3(C)CC[C@]23CO[C@]1(C)[C@@H](C(=O)/C=C\c1cccnc1)C3
stdout: 864 nM

stdin: Now consider O=C(NCc1ccncc1)C12CC3CC(C1)CC(c1ccc(Cl)cc1)(C3)C2 and answer again.
stdout: 6580 nM

stdin: CN(C)CCCNC(=O)c1cncnc1Nc1ccc(OCc2cccc(F)c2)c(Cl)c1 , same question.
stdout: 1550 nM

stdin: Also Cc1cc(O)cc(C)c1/C=C/c1cncc(-c2nn[nH]n2)c1 ?
stdout: > 25000 nM

stdin: Input CNC(=O)Oc1cc(C)c(/C=C/c2cncc(C(=O)NC)c2)c(C)c1
stdout: 11000 nM

stdin: Please give the result for Cc1ccc(-c2nc(N3CCCNCC3)c3oc(-c4ccccc4)nc3n2)cc1 too.
stdout: 1550 nM

====

Test system: MDA-MB-468 breast
Experiment: NCI tumour cell line growth inhibition, 48 h
Assign TGI to each entry below.

stdin: Returns the measured TGI for the input compound. Input: Cc1cc(O)cc(C)c1/C=C/c1cncc(-c2nn[nH]n2)c1
stdout: > 25 µM

stdin: Moving on to COc1ccc(-c2nc(N3CCN(C(=O)C4CCCCC4)CC3)c3c4c(sc3n2)CCCC4)cc1
stdout: > 100 µM

stdin: Same question, O=C(Nc1nc2ccc(F)cc2s1)c1cccnc1Nc1ccc(Cl)cc1 this time
stdout: > 100 µM

Origin of the recorded values: PubChem BioAssay (NCI)
